assay: Photobleaching (photodegradation) under UV irradiation at 365 nm; format: physicochemical; details: solution in 1-octanol; 1-octanol, UV 365 nm; read-out: t1/2 of photodegradation (converted)
assay-readout: half-life (h)

smi	assay-readout	recorded-value
COC(=O)CCCC1=C2C(C)=CC(C)=[N+]2[B-](F)(F)n2c(C)cc(C)c21	half-life	82.3

---

assay: Photobleaching (photodegradation) under UV irradiation at 365 nm; type: physicochemical; details: solution in cyclohexane; cyclohexane, UV 365 nm; read-out: t1/2 of photodegradation (converted)

smi	unit-spec	half-life
COC(=O)CCCC1=C2C(C)=CC(C)=[N+]2[B-](F)(F)n2c(C)cc(C)c21	h	88.6

---

Assay: Photobleaching (photodegradation) under UV irradiation at 365 nm
Type: physicochemical
Settings: solution in toluene; toluene, UV 365 nm; read-out: t1/2 of photodegradation (converted)
Experimental: The photofading was carried out in quartz cells. […] The irreversible bleaching of the luminophores at the absorption peak was monitored as a function of time. The EAS of the dye solution was recorded at equal intervals of irradiation (through 5–20 min) on a spectrofluorometer SM2203 in the 300–600 nm wavelength range. […]

smi	half-life
COC(=O)CCCC1=C2C(C)=CC(C)=[N+]2[B-](F)(F)n2c(C)cc(C)c21	40.5 h
